All values here come from ChEMBL document CHEMBL2434876.

- Assay Protocol: Tmax in Swiss Albino mouse at 50 mg/kg, po by LC-MS/MS analysis
- Assay type: ADME, organism-based
- Set-up: dose 50 mg/kg, route oral
- Conditions: in vivo

# Molecule, Tmax, min
measured = [
    ("OC/C=C/c1cc(N2CCOCC2)c2cc(Cl)c(F)cc2n1", 15),
]

====

- Assay Protocol: Drug metabolism in human liver microsomes at 1 uM after 30 mins by LC-MS/MS analysis
- Type: ADME, Microsome
- Conditions: read-out: Drug metabolism
This section presents compounds with their documented metabolised at 0.5 h, 1 µM values.
Measured Quantity: metabolised at 0.5 h, 1 µM (%)

# Compound, Reported Value
measured = [
    ("OC/C=C/c1ccc2cc(Cl)ccc2n1", 87),
    ("CC1CN(c2cc(/C=C/CO)nc3cc(F)c(Cl)cc23)CC(C)O1 (configuration not stated)", 17),
    ("OC/C=C/c1cc(-c2cccc(F)c2)c2cc(Cl)c(F)cc2n1", 25),
    ("NC(=O)/C=C/c1ccc2ccccc2n1", 44),
    ("OCC#Cc1ccc2ccccc2n1", 22),
    ("COc1ccc(-c2cc(/C=C/CO)nc3ccc(Cl)cc23)cc1", 8),
    ("OC/C=C/c1ccc2ccccc2n1", 96),
]
